Molecular target: human MET kinase F1200I (Homo sapiens, UniProt P08581, F1200I)
Construct: GST-tagged recombinant human MET kinase domain
Sequence (P08581 1078-1345 F1200I limits assumed): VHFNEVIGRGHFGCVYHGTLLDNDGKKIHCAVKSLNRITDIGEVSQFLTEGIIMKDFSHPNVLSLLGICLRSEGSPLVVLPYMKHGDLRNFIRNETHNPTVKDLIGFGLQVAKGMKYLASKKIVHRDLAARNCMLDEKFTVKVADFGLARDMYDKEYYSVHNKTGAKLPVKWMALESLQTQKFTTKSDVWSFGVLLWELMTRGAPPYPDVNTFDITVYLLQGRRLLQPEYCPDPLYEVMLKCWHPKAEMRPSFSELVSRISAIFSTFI
Assay: c-Met Enzyme Assay, F1200I mutant
Details: averaged IC50; F1200I 2 nM; 60-minute incubation at 22° C.
Listing: pIC50 of selected molecules
# pIC50: negative log10 of molar concentration; output just the value

Answered cases to consult:
| Smiles Record | Assay Value |
| --- | --- |
| COc1cc2c(Oc3ccc(NC(=O)c4cn(C(C)C)cc(-c5ccc(F)cc5)c4=O)nc3)ccnc2cc1OCCCN1CCOCC1 | 8.30 |
| CCC(CC)n1cc(C(=O)Nc2ccc(Oc3ccnc4cc(OC)c(OC)cc34)cn2)c(=O)c(-c2ccc(F)cc2F)c1 | 8.17 |
| COCCn1cc(C(=O)Nc2ccc(Oc3ccnc4cc(OC)c(OC)cc34)cn2)c(=O)c(-c2ccc(F)cc2)c1 | 8.43 |
| COc1cc2nccc(Oc3ccc(NC(=O)c4cn(CC(=O)N5CCCC5)cc(-c5ccc(F)cc5F)c4=O)nc3)c2cc1OC | 7.91 |
| CNC(=O)Cn1cc(C(=O)Nc2ccc(Oc3ccnc4cc(OC)c(OC)cc34)cn2)c(=O)c(-c2ccc(F)cc2)c1 | 8.60 |
| COc1cc2nccc(Oc3ccc(NC(=O)c4cn(CC(C)C)cc(-c5ccc(F)cc5)c4=O)nc3)c2cc1OC | 8.16 |

Incoming: Given the entry COc1cc2nccc(Oc3ccc(NC(=O)c4cn(CC5CCOCC5)cc(-c5ccc(F)cc5)c4=O)nc3)c2cc1OC , report its measured pIC50.
Outgoing: 8.31

Incoming: And what about the molecule COc1cc2nccc(Oc3ccc(NC(=O)c4cn(C)cc(-c5ccc(F)cc5)c4=O)nc3)c2cc1OC ?
Outgoing: 8.17

Incoming: And what about the molecule COc1cc(-c2cn(C(C)C)cc(C(=O)Nc3ccc(Oc4ccnc5cc(OC)c(OC)cc45)cn3)c2=O)ccc1F ?
Outgoing: 8.29

---

Listing: pIC50 of selected molecules
Molecular target: His-tagged recombinant human MER cytoplasmic domain (Homo sapiens, UniProt Q12866)
Construct: His-tagged recombinant human MER cytoplasmic domain
Sequence (Q12866 527-999 limits assumed): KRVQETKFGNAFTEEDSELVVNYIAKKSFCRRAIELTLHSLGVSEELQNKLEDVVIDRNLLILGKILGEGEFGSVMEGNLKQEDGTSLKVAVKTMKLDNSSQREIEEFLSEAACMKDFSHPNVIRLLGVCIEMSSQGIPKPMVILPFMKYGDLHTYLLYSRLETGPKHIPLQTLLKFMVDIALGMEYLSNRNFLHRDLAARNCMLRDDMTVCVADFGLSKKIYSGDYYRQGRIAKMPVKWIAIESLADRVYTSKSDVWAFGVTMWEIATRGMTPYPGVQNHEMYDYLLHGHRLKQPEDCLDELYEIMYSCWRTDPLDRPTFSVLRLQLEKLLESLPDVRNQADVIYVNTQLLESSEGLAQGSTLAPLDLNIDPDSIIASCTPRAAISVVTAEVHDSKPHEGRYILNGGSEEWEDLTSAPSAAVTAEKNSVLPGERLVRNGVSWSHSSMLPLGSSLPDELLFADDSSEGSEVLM
Assay: MER Enzyme Assay (LanthaScreen Eu Kinase Binding)
Conditions: averaged IC50; MER 5 nM; 60-minute incubation at 22° C.; TR-FRET
# pIC50: negative log10 of molar concentration; output just the value

Answered cases to consult:
| Molecule | pIC50 |
| --- | --- |
| COc1cc2nccc(Oc3ccc(NC(=O)c4c[nH]cc(-c5ccc(F)cc5)c4=O)nc3)c2cc1OC [Example 26] | 8.30 |
| COc1cc(-c2cn(C(C)C)cc(C(=O)Nc3ccc(Oc4ccnc5cc(OC)c(OC)cc45)cn3)c2=O)ccc1F [Example 20] | 8.52 |
| COc1cc2nccc(Oc3ccc(NC(=O)c4cn(CC(=O)N5CCCC5)cc(-c5ccc(F)cc5F)c4=O)nc3)c2cc1OC [Example 14] | 7.92 |
| COc1cc2nccc(Oc3ccc(NC(=O)c4cn(CC(C)C)cc(-c5ccc(F)cc5)c4=O)nc3)c2cc1OC [Example 11] | 7.80 |
| COc1cc2nccc(Oc3ccc(NC(=O)c4cn(C(C)C)cc(-c5ccc(F)c(Cl)c5)c4=O)nc3)c2cc1OC [Example 21] | 8.00 |
| CCC(CC)n1cc(C(=O)Nc2ccc(Oc3ccnc4cc(OC)c(OC)cc34)cn2)c(=O)c(-c2ccc(F)cc2F)c1 [Example 16] | 8.05 |
| COc1cc2nccc(Oc3ccc(NC(=O)c4cn(CCN(C)C)cc(-c5ccc(F)cc5F)c4=O)nc3)c2cc1OC [Example 44] | 8.52 |
| CCCn1cc(C(=O)Nc2ccc(Oc3ccnc4cc(OC)c(OC)cc34)cn2)c(=O)c(-c2ccc(F)cc2)c1 [Example 10] | 8.10 |
| COc1cc2nccc(Oc3ccc(NC(=O)c4cn(C(C)C)c(C)c(-c5ccc(F)cc5)c4=O)nc3)c2cc1OC [Example 27] | 8.70 |
| COc1ccc2nccc(Oc3ccc(NC(=O)c4cn(CCN(C)C)cc(-c5ccc(F)cc5)c4=O)nc3)c2c1 [Example 47] | 8.15 |

Incoming: Given the entry COc1cc2nccc(Oc3ccc(NC(=O)c4cn(C(C)C)cc(-c5ccc(F)cc5)c4=O)cn3)c2cc1OC [Example 58] , report its measured pIC50.
Outgoing: 8.70

Incoming: And what about the molecule COc1ccc2nccc(Oc3ccc(NC(=O)c4cn(C(C)C)c(C)c(-c5ccc(F)cc5)c4=O)nc3)c2c1 [Example 33] ?
Outgoing: 8.30

---

Listing: IC50 of selected molecules
Biological target: GST-tagged recombinant human TYRO3 kinase domain (Homo sapiens, UniProt Q06418)
Construct: GST-tagged recombinant human TYRO3 kinase domain; purchased Carna PR7480A
Sequence (Q06418 518-790 limits assumed): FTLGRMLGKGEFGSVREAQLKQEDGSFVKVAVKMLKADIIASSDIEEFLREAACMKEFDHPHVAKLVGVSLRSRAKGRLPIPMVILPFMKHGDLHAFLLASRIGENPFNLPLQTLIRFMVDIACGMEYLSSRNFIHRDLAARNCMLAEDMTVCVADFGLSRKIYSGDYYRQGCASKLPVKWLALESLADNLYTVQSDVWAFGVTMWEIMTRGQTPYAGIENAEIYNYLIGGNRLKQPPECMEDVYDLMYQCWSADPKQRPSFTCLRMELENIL
Test: TYRO3 Enzyme Assay (LanthaScreen Eu Kinase Binding)
Conditions: averaged IC50; TYRO3 5 nM; 60-minute incubation at 22° C.; TR-FRET
Could you give me the number in nM? Just the number is fine.

| Smiles Record | Display Unit | IC50 |
| --- | --- | --- |
| COc1cc2nccc(Oc3ccc(NC(=O)c4cn(CCC(C)C)cc(-c5ccc(F)c(F)c5)c4=O)nc3)c2cc1OC | nM | 30 |
| COc1cc2nccc(Oc3ccc(NC(=O)c4cn(C(C)C)cc(-c5ccc(Cl)cc5)c4=O)nc3)c2cc1OC | nM | 12 |
| COc1cc2nccc(Oc3ccc(NC(=O)c4cn(C(C)C)cc(-c5ccc(F)cc5F)c4=O)nc3)c2cc1OC | nM | 5 |
| COc1cc2nccc(Oc3ccc(NC(=O)c4cn(CC(C)C)cc(-c5ccc(F)cc5)c4=O)nc3)c2cc1OC | nM | 33 |

Could you now look at the following molecule, please?
Incoming: Hi! What's the reported IC50 for COc1cc2c(Oc3ccc(NC(=O)c4cn(C(C)C)cc(-c5ccc(F)cc5)c4=O)nc3)ccnc2cc1F on GST-tagged recombinant human TYRO3 kinase domain (Homo sapiens, UniProt Q06418)?
Outgoing: 58

---

Biological target: human MET kinase Y1230S (Homo sapiens, UniProt P08581, Y1230S)
Construct: GST-tagged recombinant human MET kinase domain
Sequence (P08581 1078-1345 Y1230S): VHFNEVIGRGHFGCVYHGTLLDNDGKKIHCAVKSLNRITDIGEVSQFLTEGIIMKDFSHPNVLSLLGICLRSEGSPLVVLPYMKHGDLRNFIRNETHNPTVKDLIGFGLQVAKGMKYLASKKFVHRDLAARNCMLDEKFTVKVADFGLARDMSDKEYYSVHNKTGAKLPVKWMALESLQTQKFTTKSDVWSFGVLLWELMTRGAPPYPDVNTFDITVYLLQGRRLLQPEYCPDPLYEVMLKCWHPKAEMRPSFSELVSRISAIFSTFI
Assay: c-Met Enzyme Assay, Y1230S mutant
Details: averaged IC50; Y1230S 8 nM; 60-minute incubation at 22° C.; read-out: Y1230 S IC50
Quick rule for you: IC50 under 3 nM gets satisfied, anything else gets not satisfied.

Take a look at these entries with their results.
| Molecule | Study Target | Cat |
| --- | --- | --- |
| COCCn1cc(C(=O)Nc2ccc(Oc3ccnc4cc(OC)c(OC)cc34)cn2)c(=O)c(-c2ccc(F)cc2)c1 [Example 7] | human MET kinase Y1230S (Homo sapiens, UniProt P08581, Y1230S) | satisfied |
| COc1cc2nccc(Oc3ccc(NC(=O)c4cn(C(C)C)cc(-c5ccc(F)c(F)c5)c4=O)nc3)c2cc1OC [Example 6] | human MET kinase Y1230S (Homo sapiens, UniProt P08581, Y1230S) | not satisfied |
| COc1cc2nccc(Oc3ccc(NC(=O)c4cn(CCN(C)C)cc(-c5ccc(Cl)cc5)c4=O)nc3)c2cc1OC [Example 42] | human MET kinase Y1230S (Homo sapiens, UniProt P08581, Y1230S) | satisfied |
| COc1cc2nccc(Oc3ccc(NC(=O)c4cn(C(C)C)cc(-c5ccc(F)cc5C)c4=O)nc3)c2cc1OC [Example 19] | human MET kinase Y1230S (Homo sapiens, UniProt P08581, Y1230S) | satisfied |

Consider now this further molecule.
Incoming: Lab note: confirm whether the reported IC50 for this molecule is below 3 nM, equality not counting. molecule: COc1cc2nccc(Oc3ccc(NC(=O)c4cn(CC5CCOCC5)cc(-c5ccc(F)cc5)c4=O)nc3)c2cc1OC [Example 8]
Outgoing: not satisfied

---

Biological target: MDR1 (P-gp) (Homo sapiens, UniProt P08183)
Construct: expressed in transfected cells; host or cells: LLC-PK1
Sequence (P08183 whole entry): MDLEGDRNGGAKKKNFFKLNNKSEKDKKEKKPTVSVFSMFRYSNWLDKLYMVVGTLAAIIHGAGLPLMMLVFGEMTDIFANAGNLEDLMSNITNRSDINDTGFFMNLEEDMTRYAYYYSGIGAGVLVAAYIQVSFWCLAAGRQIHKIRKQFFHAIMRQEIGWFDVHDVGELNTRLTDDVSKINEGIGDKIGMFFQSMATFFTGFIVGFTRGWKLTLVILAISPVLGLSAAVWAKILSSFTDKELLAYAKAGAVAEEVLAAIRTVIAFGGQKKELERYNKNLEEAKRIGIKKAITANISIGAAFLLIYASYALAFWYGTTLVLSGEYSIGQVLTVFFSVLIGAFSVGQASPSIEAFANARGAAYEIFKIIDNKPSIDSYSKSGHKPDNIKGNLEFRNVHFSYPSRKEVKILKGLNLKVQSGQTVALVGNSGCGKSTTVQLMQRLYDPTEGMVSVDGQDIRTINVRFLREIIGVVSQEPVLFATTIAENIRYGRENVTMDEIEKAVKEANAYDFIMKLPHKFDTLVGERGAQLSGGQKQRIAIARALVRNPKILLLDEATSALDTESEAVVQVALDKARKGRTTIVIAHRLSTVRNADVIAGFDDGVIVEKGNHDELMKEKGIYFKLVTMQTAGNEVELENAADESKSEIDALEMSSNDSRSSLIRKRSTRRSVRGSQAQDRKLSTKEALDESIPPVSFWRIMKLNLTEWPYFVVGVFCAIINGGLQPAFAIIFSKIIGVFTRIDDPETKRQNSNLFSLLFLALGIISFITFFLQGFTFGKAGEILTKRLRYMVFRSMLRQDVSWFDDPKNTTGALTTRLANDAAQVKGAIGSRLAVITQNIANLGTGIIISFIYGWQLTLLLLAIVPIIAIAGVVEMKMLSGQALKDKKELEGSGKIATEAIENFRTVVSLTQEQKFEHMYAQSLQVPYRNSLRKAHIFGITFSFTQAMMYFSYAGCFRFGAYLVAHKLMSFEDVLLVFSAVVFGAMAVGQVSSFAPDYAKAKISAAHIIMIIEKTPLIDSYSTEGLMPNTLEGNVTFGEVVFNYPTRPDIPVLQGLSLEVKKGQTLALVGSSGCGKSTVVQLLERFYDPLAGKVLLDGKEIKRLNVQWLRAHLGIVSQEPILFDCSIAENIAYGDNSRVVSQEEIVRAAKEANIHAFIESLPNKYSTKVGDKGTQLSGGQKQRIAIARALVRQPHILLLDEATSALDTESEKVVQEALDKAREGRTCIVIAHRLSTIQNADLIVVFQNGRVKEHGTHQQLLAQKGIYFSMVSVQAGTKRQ
Test: MDR1 LLC-PK1 permeability assay
Format: in vitro ADME
Details: pig, LLC-PK1, efflux ratio = Papp(B-A)/Papp(A-B), MDR1 transfected LLC-PK1 cells; read-out: MDR1 Pe Ratio
Everything with efflux ratio at 2 h, 1 μM lower than 5 is f; everything else, including exactly 5, is t.

Take a look at these entries with their results.
| Smiles Record | Cat |
| --- | --- |
| COc1cc2nccc(Oc3ccc(NC(=O)c4cn(CCC(C)C)cc(-c5ccc(Cl)cc5)c4=O)nc3)c2cc1OC | t |
| CCCC(CCC)n1cc(C(=O)Nc2ccc(Oc3ccnc4cc(OC)c(OC)cc34)cn2)c(=O)c(-c2ccc(F)cc2F)c1 | t |
| COc1cc2c(Oc3ccc(NC(=O)c4cn(C(C)C)cc(-c5ccc(F)cc5)c4=O)nc3)ccnc2cc1OCCCN1CCOCC1 | t |
| CCn1cc(C(=O)Nc2ccc(Oc3ccnc4ccc(OC)cc34)cn2)c(=O)c(-c2ccc(F)cc2)c1 | f |

Incoming: Please indicate if the recorded efflux ratio at 2 h, 1 μM for COc1cc2nccc(Oc3ccc(NC(=O)c4cn(C(C)C)cc(-c5ccc(F)cc5)c4=O)nc3)c2cc1OC meets or exceeds 5.
Outgoing: f

Incoming: And what about the compound COc1cc2nccc(Oc3ccc(NC(=O)c4cn(CC(C)C)cc(-c5ccc(F)cc5)c4=O)nc3)c2cc1OC ?
Outgoing: t

Incoming: And what about the compound COc1cc2c(Oc3ccc(NC(=O)c4cn(C(C)C)c(C)c(-c5ccc(F)cc5)c4=O)nc3)ccnc2cc1F ?
Outgoing: f
